Target: human GLP-1 receptor (human, UniProt P43220 24-463)
Experiment: cell-based or functional assay
Starred links: 1 amine or outer side, 2 acyl side, 3 side chain; linkers in the order of their positions; H or OH if unused. Non-standard residues stand in square brackets, D forms with d. Groups on a side chain read outwards from the residue. *: point of attachment. Butyryl(4-SO2NHCO(CH2)16Tz) = O=C(CCCCCCCCCCCCCCCCc1nnn[nH]1)NS(=O)(=O)CCCC(=O)*; Decanoyl(10-(4-HOOC-PhO)) = O=C(O)c1ccc(OCCCCCCCCCC(=O)*)cc1; Hexadecanoyl(16-SO3H) = O=C(CCCCCCCCCCCCCCCS(=O)(=O)O)*; C20 diacid = O=C(O)CCCCCCCCCCCCCCCCCCC(=O)*; C18 diacid = O=C(O)CCCCCCCCCCCCCCCCC(=O)*; C16 diacid = O=C(O)CCCCCCCCCCCCCCC(=O)*; γGlu = O=C(O)[C@H](CCC(=O)[*:2])N[*:1]; εLys = N[C@@H](CCCCN[*:1])C(=O)[*:2]; Trx = NC[C@H]1CC[C@H](C(=O)O)CC1; AEEA = NCCOCCOCC(=O)O; Aib = CC(C)(N)C(=O)O
value-type: Human GLP-1R potency [EC50 (pM)]

- binder: "Compound 0267 (peptide) peptide: HWEGTFTSDVSSYLEEQAAREFIEWLVRGK([AEEA-AEEA-γGlu-Trx-C20 diacid])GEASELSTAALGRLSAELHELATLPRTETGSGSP-NH2"
  quantitative-readout: 28.5
- binder: "Compound 0433 (peptide) peptide: HWEGTFTSDK([εLys-AEEA-AEEA-γGlu-Trx-C20 diacid])SSYLEEQAAREFIEWLVRGRGEASELSTAALGRLSAELHELATLPRTETGSGSP-NH2"
  quantitative-readout: 30.7
- binder: "Compound 0414 (peptide) peptide: HAEGTFTSDVSSYLEEK([AEEA-AEEA-γGlu-Trx-C20 diacid])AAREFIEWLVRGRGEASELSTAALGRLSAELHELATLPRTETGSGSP-NH2"
  quantitative-readout: 11.2
- binder: "Compound 0231 (peptide) peptide: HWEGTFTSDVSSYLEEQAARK([AEEA-AEEA-γGlu-Decanoyl(10-(4-HOOC-PhO))])FIEWLVRGRGEGGGGGASELSTAALGRLSK([AEEA-AEEA-γGlu-Decanoyl(10-(4-HOOC-PhO))])ELHELATLPRTETGSGSP-NH2"
  quantitative-readout: 5.6
- binder: "Compound 0654 (peptide) peptide: H[Aib]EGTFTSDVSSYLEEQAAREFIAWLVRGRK([AEEA-AEEA-γGlu-Hexadecanoyl(16-SO3H)])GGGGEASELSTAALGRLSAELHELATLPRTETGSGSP-NH2"
  quantitative-readout: 2.9
- binder: "Compound 0233 (peptide) peptide: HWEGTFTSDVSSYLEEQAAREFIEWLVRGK([AEEA-AEEA-γGlu-Decanoyl(10-(4-HOOC-PhO))])GEGGGGGASELSTAALGRLSK([AEEA-AEEA-γGlu-Decanoyl(10-(4-HOOC-PhO))])ELHELATLPRTETGSGSP-NH2"
  quantitative-readout: 46.4
- binder: "Compound 0474 (peptide) peptide: HAEGTFTSDVSSYLEEK([AEEA-AEEA-γGlu-C20 diacid])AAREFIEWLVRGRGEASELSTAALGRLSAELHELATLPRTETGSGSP-NH2"
  quantitative-readout: 2.9
- binder: "Compound 0483 (peptide) peptide: H[Aib]EGTFTSDVSK([AEEA-AEEA-γGlu-C16 diacid])YLEEQAVREFIAK([AEEA-AEEA-γGlu-C16 diacid])LVRGRGGGEASELSTAALGRLSAELHELATLPRTETGSGSP-NH2"
  quantitative-readout: 33.7
- binder: "Compound 0111 (peptide) peptide: H[Aib]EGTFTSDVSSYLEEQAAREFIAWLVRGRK([AEEA-AEEA-γGlu-C18 diacid])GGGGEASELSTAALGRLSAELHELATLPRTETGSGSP-NH2"
  quantitative-readout: 3
- binder: "Compound 0077 (peptide) peptide: H[Aib]EGTFTSDVSSYLEEQAARK([AEEA-AEEA-γGlu-C16 diacid])FIAWLVK([AEEA-AEEA-γGlu-C16 diacid])GRGGGEASELSTAALGRLSAELHELATLPRTETGSGSP-NH2"
  quantitative-readout: 2.1
- binder: "Compound 0273 (peptide) peptide: HWEGTFTSDK([AEEA-AEEA-γGlu-C18 diacid])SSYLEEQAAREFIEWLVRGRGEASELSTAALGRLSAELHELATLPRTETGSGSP-NH2"
  quantitative-readout: 24.9
- binder: "Compound 0292 (peptide) peptide: H[Aib]EGTFTSDK([AEEA-AEEA-γGlu-C16 diacid])SSYLEEQAAREFIAWLVRGRGGGGGASELSTAALGRLSK([AEEA-AEEA-γGlu-C16 diacid])ELHELATLPRTETGSGSP-NH2"
  quantitative-readout: 12
- binder: "Compound 0102 (peptide) peptide: H[Aib]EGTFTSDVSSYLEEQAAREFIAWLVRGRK(Butyryl(4-SO2NHCO(CH2)16Tz))ELSTAALGRLSAELHELATLPRTETGSGSP-NH2"
  quantitative-readout: 14.7
- binder: "Compound 0254 (peptide) peptide: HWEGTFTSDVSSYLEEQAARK([AEEA-AEEA-γGlu-Trx-C20 diacid])FIEWLVRGRGEGGGGGASELSTAALGRLSAELHELATLPRTETGSGSP-NH2"
  quantitative-readout: 8.9
- binder: "Compound 0261 (peptide) peptide: H[Aib]EGTFTSDK([AEEA-AEEA-γGlu-C16 diacid])SSYLEEQAAREFIAWLVRGRGGGGGEASELSTAALGRLSAELHELATLK([AEEA-AEEA-γGlu-C16 diacid])RTETGSGSP-NH2"
  quantitative-readout: 17.4
